// data source = PubChem BioAssay AID1508600

Assay: Components of the Cytosolic LPS Sensing Pathway: Gene Identification via Genome-wide siRNA Screen;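 note: robust z of the log signal after scaling to non-targeting control siRNA wells of the plate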
Details: RAW264.7 macrophages, IL-1a HTRF, actives lie on both sides, screened at 100 nM (by protocol), cells primed 5 h with Pam3CSK4 first
About 3,700 (7%) of roughly 53,000 sequences were called active.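 Rule for the calls: active = gene knockdowns whose robust z-score for IL-1 alpha signal is at least 2 or at most -2, so actives lie on both sides; inactive = the rest.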 Only a selection was taken, and actives are over-represented in it overall.
Thanks in advance; please answer with one of these: yes (1) for active, no (0) for inactive

Record excerpt, results attached:
{"Input Sequence": "GGUCAUGACAGGAUACCCATT against Fam163b", "Category": "no (0)"}
{"Input Sequence": "GGAGUGAAGGUUCAGAUCCTT against Asic2", "Category": "yes (1)"}
{"Input Sequence": "GGCCAAUAAAGACUGGUUUTT against Rps15", "Category": "no (0)"}
{"Input Sequence": "CCAUCUAACCCUAUAUUAGTT against G6pdx", "Category": "no (0)"}
{"Input Sequence": "GGAAAACACACUUUUCUUUTT against Thap2", "Category": "no (0)"}

Exam item: Call for entry GGAGGAAAUGAUGAUUUUCTT against Kbtbd2 :
Marked response: no (0)

Exam item: Recorded call for CGAGACUCUAUCUUUGUCCTT against St3gal3 ?
Marked response: no (0)

Exam item: # fetch the recorded call for GGCAUCUCUUUGCUUGAAUTT against Lalba here
Marked response: no (0)

Exam item: Hey, what did the test say about GCACACCCAAUGCUCUAAGTT against Nprl3 ?
Marked response: no (0)

Exam item: Please indicate how the test categorized GCUGAAGAGGCGCAUACAUTT against 2610318N02Rik .
Marked response: yes (1)

Exam item: Could you check what this test reported for GCUAGGAUUGUUCACAAACTT against Spdef ?
Marked response: no (0)

Exam item: What did the test return for CGACAAAAGCCACCUUUCGTT against Tm4sf4 ?
Marked response: yes (1)

Exam item: Status in this test for GGCACUUUCCCUAUAUUGUTT against Col26a1 ?
Marked response: no (0)

Exam item: Per the records of this test, what outcome belongs to GGAAACGAUAGCCAAUAUUTT against Scp2d1 ?
Marked response: no (0)

Exam item: I'd appreciate the recorded outcome for GGAAAGAUAGAAGACAAACTT against Spry4 from this test.
Marked response: no (0)

Exam item: Any idea what this test logged for GGUGCUUGGGAAUUUUGAUTT against Gpsm2 ?
Marked response: yes (1)

Exam item: Recorded test outcome, item GGCGAAUUAAUUAACCGCCTT against Abcb10
Marked response: no (0)

Exam item: Look up the recorded call for GGAGGAGUAUGUUAAGGCCTT against Myh6 in this test.
Marked response: no (0)
